Every entry's value here was drawn from PubChem BioAssay (NCI).

# System: SF-268 CNS
# run.description: NCI tumour cell line growth inhibition, 384-well format; in the data active = GI50 below about 0.43 µM; inactive = the rest
Outcome codes: active, inactive

1) O=C1c2c(O)ccc(O)c2C(=O)c2c(NCCNCCO)ccc(NCCNCCO)c21 ... active
2) COc1ccccc1-c1nccc(COc2ccccc2C[C@@H](Oc2ncnc3sc(-c4ccc(F)cc4)c(-c4ccc(OCCN5CCN(C)CC5)c(Cl)c4C)c23)C(=O)O)n1 ... inactive
3) Cc1cc(Nc2cc(N3CCN(C)CC3)nc(C#Cc3ccccc3)n2)n[nH]1 ... inactive
4) Cc1cc([C@H](C)Nc2nccc(N3C(=O)OC[C@@H]3[C@H](C)F)n2)ncc1-c1ccnc(C(F)(F)F)c1 ... inactive
